# System: HL-60(TB) leukemia
# assay summary: NCI-60 one-dose screen, 48 h (100 = growth as untreated, 0 = no growth, -100 = all killed)
# assay context: 10 µM unless noted
The panel holds about 83,000 compounds, 20% with a hit somewhere; the sample as a whole holds those more often.
Returns: string. Value is condition met if measured growth is below 90%, and condition not met if it is greater than or equal to it.

Incoming: Confirm or reject: growth of CCCCCN(CCCCC)CC(O)c1cc(C)c2ccc3cc(C(C)C)ccc3c2c1 (configuration not stated) lies strictly below 90%
Outgoing: condition met

Incoming: Criterion: growth strictly below 90%. Is it met by O=C1NCC2CCCC1C2 (configuration not stated) ?
Outgoing: condition not met

Incoming: Take the molecule `O=C(Cn1nnc2ccccc21)N/N=C/c1ccccc1F` and say whether its growth is less than 90%.
Outgoing: condition not met

Incoming: Hello, is growth of the following molecule strictly smaller than 90%? CC1=NNC(=O)C1CCC(=O)N/N=C(\C)c1ccc2ccccc2c1 (configuration not stated)
Outgoing: condition met

Incoming: Find out if reported growth for `Cc1cc(Cc2cc(C)c(N)cc2N)c(N)cc1N` is less than 90%
Outgoing: condition met

Incoming: Dear reviewer, please state whether `COc1cc(CCNc2nc3cc(N)cc(N)c3nc2-c2ccccc2)cc(OC)c1` has growth strictly beneath 90%.
Outgoing: condition met
